These entries and their values trace back to patent US8143259B2.

EXPERIMENTAL_TARGET: canine TRPM8 (Canis lupus familiaris)
Construct: expressed in transfected cells
Sequence (Q1A7N1 1-1104): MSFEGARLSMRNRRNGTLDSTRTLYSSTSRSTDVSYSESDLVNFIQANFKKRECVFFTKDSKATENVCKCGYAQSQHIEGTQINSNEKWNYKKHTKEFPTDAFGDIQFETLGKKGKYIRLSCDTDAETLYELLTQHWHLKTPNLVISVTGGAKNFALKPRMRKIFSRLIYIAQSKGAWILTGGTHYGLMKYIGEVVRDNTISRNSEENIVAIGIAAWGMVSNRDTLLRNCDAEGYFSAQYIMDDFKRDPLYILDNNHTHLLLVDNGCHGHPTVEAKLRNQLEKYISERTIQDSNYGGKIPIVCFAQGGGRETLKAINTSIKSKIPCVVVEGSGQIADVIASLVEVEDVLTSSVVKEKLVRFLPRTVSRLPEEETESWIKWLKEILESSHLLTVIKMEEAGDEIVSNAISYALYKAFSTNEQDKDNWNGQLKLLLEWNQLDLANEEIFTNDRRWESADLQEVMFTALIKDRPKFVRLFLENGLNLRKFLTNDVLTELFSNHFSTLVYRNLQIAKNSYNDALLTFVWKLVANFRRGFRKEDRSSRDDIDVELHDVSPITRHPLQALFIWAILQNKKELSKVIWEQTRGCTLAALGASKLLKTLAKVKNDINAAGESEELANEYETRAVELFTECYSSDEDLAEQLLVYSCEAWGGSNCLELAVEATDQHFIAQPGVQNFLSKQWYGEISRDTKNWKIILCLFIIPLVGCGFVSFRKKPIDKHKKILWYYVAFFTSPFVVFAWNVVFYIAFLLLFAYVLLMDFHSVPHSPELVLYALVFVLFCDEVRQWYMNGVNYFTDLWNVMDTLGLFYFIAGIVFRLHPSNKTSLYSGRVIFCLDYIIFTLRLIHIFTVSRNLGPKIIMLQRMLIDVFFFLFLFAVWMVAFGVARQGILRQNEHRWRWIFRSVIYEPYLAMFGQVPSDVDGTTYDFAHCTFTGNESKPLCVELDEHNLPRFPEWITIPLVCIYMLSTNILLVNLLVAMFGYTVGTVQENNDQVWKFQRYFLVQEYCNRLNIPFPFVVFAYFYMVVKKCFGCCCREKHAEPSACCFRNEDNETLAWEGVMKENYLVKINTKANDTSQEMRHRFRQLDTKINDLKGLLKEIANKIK
PROTOCOL_TEXT: In Vitro Canine TRPM8 Functional Assay (Ca2+ fluorescence, icilin activation)
Format: cell-based
ASSAY_SETUP: HEK293, 0.2 μM compound; canine TRPM8 HEK293; icilin
OBSERVATION_TYPE: inhibition at 0.2 µM (%)

Consider the following illustrative entries.
// query Consider the molecule shown here: O=C(C(Nc1ccccc1F)c1ccc(-c2cccnc2)cc1)N1CCCC1c1ccccc1Cl (stereo not shown) [Cpd 343] What is its recorded inhibition at 0.2 µM?
// result 101

// query Consider the molecule shown here: CN(C)c1ccc(C2CCCN2C(=O)C(Nc2c(F)cccc2F)c2ccc(Cl)cc2)cc1 (stereo not shown) [Cpd 273] What is its recorded inhibition at 0.2 µM?
// result 98

// query Consider the molecule shown here: O=C(O)c1ccc(-c2ccc(C(Nc3ccccc3F)C(=O)N3CCCC3c3ccccc3F)cc2)cc1 (stereo not shown) [Cpd 295] What is its recorded inhibition at 0.2 µM?
// result 90

// query Consider the molecule shown here: O=C(C(Nc1ccccc1F)c1cc2ccccc2s1)N1CCCC1c1cccnc1 (stereo not shown) [Cpd 319] What is its recorded inhibition at 0.2 µM?
// result 94

1 = O=C(C(Nc1ccccc1F)c1ccc(-n2ccnc2)cc1)N1CCCC1c1ccccc1Cl (stereo not shown) [Cpd 342]
2 = COC(=O)[C@@H]1CC[C@H](c2ccccc2)N1C(=O)C(Nc1c(F)cccc1F)c1ccc(Br)cc1 (single isomer, unassigned) [Cpd 204]
// query Could you please tell me which of these two has the higher inhibition at 0.2 µM: 1 or 2 ? Label of pick, please.
// result 1
(1: 100%, 2: 47%)
